Measurement Kind: melting point

Compound: CN1CCN(CC(=O)Nc2cccc3c2C(=O)c2c-3n[nH]c2-c2ccc(N3CCOCC3)cc2)CC1 [Example LXXXII]
Test Result: 258 °C

*Q* Data request, read-out melting point, for COc1ccc(-c2[nH]nc3c2C(=O)c2c(NC(=O)NNC(=O)c4ccc(O)c(O)c4)cccc2-3)cc1 [Example CLXI]
*A* > 300 °C

*Q* // melting point lookup, key: CC(=O)Nc1cccc2c1C(=O)c1c-2n[nH]c1-c1cccs1 [Example LXXXIX]
*A* 269 °C

*Q* melting point for COc1ccc(-c2[nH]nc3c2C(=O)c2c(NC(=O)NNC(=O)c4ccccc4N)cccc2-3)cc1 [Example CLXV] ?
*A* 257 °C

====

Measurement Kind: melting point

Below, 4 compounds whose answers are already recorded.
Smi: CC(=O)Nc1cccc2c1C(=O)c1c-2n[nH]c1C(C)C
melting point: > 250 °C

Smi: COc1ccc(-c2[nH]nc3c2C(=O)c2c(NC(=O)NN(C)C)cccc2-3)cc1
melting point: > 300 °C

Smi: COc1ccc(-c2[nH]nc3c2C(=O)c2c(NC(=O)NCc4ccc(N)cc4)cccc2-3)cc1
melting point: > 300 °C

Smi: CC(=O)Nc1cccc2c1C(=O)c1c-2n[nH]c1C(C)(C)C
melting point: > 250 °C

Here is another compound to look at.
*Q* Using the record for COc1ccc(-c2[nH]nc3c2C(=O)c2c(NC(=O)CCNc4ccncc4)cccc2-3)cc1 , report its melting point.
*A* > 300 °C

The reported measurements were obtained from patent US7250435B2.
